Listed compounds paired with reported EC50
tested on: WI-38 VA13; test: Cytotoxicity against VA13 cell line; Expressed as effective concentration; type: functional, cell-based; settings: Homo sapiens

>  <CPD SMILES>
COCc1ccccc1C(=O)c1oc2cc(-c3ccccc3)cc(O)c2c1C

>  <EC50>
0.1 µg/mL

$$$$
>  <CPD SMILES>
Cc1c(C(=O)c2ccccc2-c2ccccc2)oc2cc(-c3ccccc3)cc(O)c12

>  <EC50>
0.1 µg/mL

$$$$
>  <CPD SMILES>
CCc1ccc(C(=O)c2oc3cc(-c4ccccc4)cc(O)c3c2C)cc1

>  <EC50>
> 4 µg/mL

$$$$
>  <CPD SMILES>
Cc1c(C(=O)c2cccc(OC(C)C)c2)oc2cc(-c3ccccc3)cc(O)c12

>  <EC50>
0.35 µg/mL

$$$$
>  <CPD SMILES>
COc1ccc(C(=O)c2oc3cc(-c4ccccc4)cc(O)c3c2C)cc1

>  <EC50>
0.28 µg/mL

$$$$
>  <CPD SMILES>
Cc1c(C(=O)c2cncnc2)oc2cc(-c3ccccc3)cc(O)c12

>  <EC50>
0.7 µg/mL

$$$$
>  <CPD SMILES>
Cc1c(C(=O)c2cccc(C(F)(F)F)c2)oc2cc(-c3ccccc3)cc(O)c12

>  <EC50>
> 4 µg/mL

$$$$
>  <CPD SMILES>
Cc1c(C(=O)c2ccccc2)oc2cc(-c3ccccc3)cc(O)c12

>  <EC50>
0.6 µg/mL

$$$$
>  <CPD SMILES>
COc1ccc(C(=O)c2oc3cc(-c4ccccc4)cc(O)c3c2C)cc1OC

>  <EC50>
0.45 µg/mL

$$$$
>  <CPD SMILES>
COc1ccc(C(=O)c2oc3cc(-c4ccccc4)cc(O)c3c2C)c(C(F)(F)F)c1

>  <EC50>
0.4 µg/mL

$$$$
